Tested on: CYP4503A4
Experiment: CYP4503A4 metabolic induction (mRNA expression) in human cryopreserved platable hepatocytes
Assay type: in vitro ADME
Conditions: 10 μM test compound, two days treatment, mRNA by QuantiGene Plex 2.0
property: CYP4503A4 mRNA fold increase at 10 μM (fold)
Please reply with the bare figure in fold and do not write the unit itself.

Data request: Find the measured CYP4503A4 mRNA fold increase at 10 μM of Cc1nsc(OCC2CCN(C(CNC(=O)c3c(F)cccc3Cl)c3scnc3C(F)F)CC2)n1 (centres unmarked) and report it.
Data returned: 9.7

Data request: Find the measured CYP4503A4 mRNA fold increase at 10 μM of O=C(NCC(c1scnc1C(F)F)N1CCC(COc2cc(F)ncn2)CC1)c1c(F)cccc1Cl (centres unmarked) and report it.
Data returned: 5.0

Data request: Find the measured CYP4503A4 mRNA fold increase at 10 μM of N#Cc1cncc(OCC2CCN(C(CNC(=O)c3c(F)cccc3Cl)c3scnc3C(F)F)CC2)c1 (centres unmarked) and report it.
Data returned: 7.4

Data request: Find the measured CYP4503A4 mRNA fold increase at 10 μM of O=C(NCC(c1scnc1C(F)F)N1CCC(COc2cccc(F)n2)CC1)c1c(F)cccc1Cl (centres unmarked) and report it.
Data returned: 6.9

Data request: Find the measured CYP4503A4 mRNA fold increase at 10 μM of O=C(NCC(c1scnc1C(F)F)N1CCC(Oc2nccn3cnnc23)CC1)c1c(F)cccc1Cl (centres unmarked) and report it.
Data returned: 4.5

Data request: Find the measured CYP4503A4 mRNA fold increase at 10 μM of Cc1noc(C)c1COC1CCN(C(CNC(=O)c2c(F)cccc2Cl)c2scnc2C(F)F)CC1 (centres unmarked) and report it.
Data returned: 2.6

Data request: Find the measured CYP4503A4 mRNA fold increase at 10 μM of O=C(NCC(c1scnc1C(F)F)N1CCC(Oc2nc(C3CC3)ns2)CC1)c1c(F)cccc1Cl (centres unmarked) and report it.
Data returned: 9.7

Data request: Find the measured CYP4503A4 mRNA fold increase at 10 μM of N#Cc1cc(OC2CCN(C(CNC(=O)c3c(F)cccc3Cl)c3scnc3C(F)F)CC2)ccn1 (centres unmarked) and report it.
Data returned: 6.3
